Molecular target: full-length recombinant human NEK7 (Homo sapiens (Human), UniProt Q8TDX7)
Sequence (Q8TDX7 whole entry): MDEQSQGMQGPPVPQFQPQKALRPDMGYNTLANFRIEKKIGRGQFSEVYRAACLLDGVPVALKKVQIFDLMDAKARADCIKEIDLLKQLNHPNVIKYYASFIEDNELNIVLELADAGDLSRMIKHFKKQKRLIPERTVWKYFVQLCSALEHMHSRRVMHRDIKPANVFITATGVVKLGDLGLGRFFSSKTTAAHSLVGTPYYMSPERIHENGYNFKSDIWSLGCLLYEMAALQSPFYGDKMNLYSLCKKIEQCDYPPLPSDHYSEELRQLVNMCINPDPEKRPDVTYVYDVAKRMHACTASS
Assay: NEK7 Enzymatic Assay
Details: casein substrate, [33P]-ATP, 2 hours at room temperature
OBSERVABLE: IC50

Answered cases to consult:
COMPOUND	IC50
CC(C)(c1cc(NC(=O)Nc2ccc(-c3cn(C4CC4)c4ncnc(N)c34)n3ccnc23)on1)C(F)(F)F	< 200 nM
Cn1cc(-c2ccc(NC(=O)Nc3cc(C4(C(F)(F)F)CC4)on3)c3nccn23)c2c(N)ncnc21	< 200 nM
CC1Cc2c(-c3cn(C4CC4)c4ncnc(N)c34)ccc(NC(=O)Nc3ccc(OC4CCN(C)CC4)c(C(F)(F)F)c3)c2O1 (stereo not shown)	> 2000 nM
CC(C)(C)c1cc(NC(=O)Nc2ccc(-c3cn(C4CC4)c4ncnc(N)c34)c3ccoc23)n(-c2ccccc2)n1	500 to 2000 nM
Nc1ncnc2c1c(-c1ccc(NC(=O)Nc3cc(C4CC4)on3)c3nccn13)cn2C1CC1	< 200 nM

query: Reported IC50 for "CC(C)n1cc(-c2ccc(NC(=O)Nc3ccc(CN4CCN(C)CC4)c(C(F)(F)F)c3)c3nccn23)c2c(N)ncnc21" : what is it?
result: < 200 nM

query: And the next one, "Cc1cc(NC(=O)Nc2ccc(-c3cn(C4CC4)c4ncnc(N)c34)n3ccnc23)no1" ?
result: > 2000 nM

query: And the next one, "Nc1ncnc2c1c(-c1ccc(NC(=O)Nc3cc(C4(C(F)(F)F)CCC4)no3)c3nccn13)cn2C1CC1" ?
result: < 200 nM

query: And the next one, "CC(C)(c1cc(NC(=O)Nc2ccc(-c3cn(C4CC4)c4ncnc(N)c34)n3ccnc23)no1)C(F)(F)F" ?
result: < 200 nM

query: And the next one, "Nc1ncnc2c1c(-c1ccc(NC(=O)Nc3cc(C4(C(F)(F)F)CC4)on3)c3nccn13)cn2C1CC1" ?
result: < 200 nM

---

pIC50 for assorted compounds
Target: full-length recombinant human NEK7 (Homo sapiens (Human), UniProt Q8TDX7)
Test: NEK7 Enzymatic Assay
Settings: casein substrate, [33P]-ATP, 2 hours at room temperature
pIC50: −log10 of the molar value.

Answered cases to consult:
MOLECULE_SMILES	pIC50
Nc1ncnc2c1c(-c1ccc(NC(=O)Nc3cc(C4(C(F)(F)F)CCC4)on3)c3nccn13)cn2C1CC1	6.30 to 6.70
Nc1ncnc2c1c(-c1ccc(NC(=O)Nc3cc(C4CC4)no3)c3nccn13)cn2C1CC1	6.30 to 6.70

query: Reported pIC50 for "CCN1CCC(Oc2ccc(NC(=O)Nc3ccc(-c4cn(C5CC5)c5ncnc(N)c45)c4c3OC(C)(C)C4)cc2C(F)(F)F)CC1" : what is it?
result: < 5.70

query: And the next one, "CCN1CCN(Cc2ccc(NC(=O)Nc3ccc(-c4cn(C5CC5)c5ncnc(N)c45)c4c3OCC4)cc2C(F)(F)F)CC1" ?
result: > 6.70

query: And the next one, "Nc1ncnc2c1c(-c1cnc(NC(=O)Nc3cc(C4(C(F)(F)F)CC4)on3)c3nccn13)cn2C1CC1" ?
result: < 5.70

query: And the next one, "CC1(c2cc(NC(=O)Nc3ccc(-c4cn(C5CC5)c5ncnc(N)c45)c4ccncc34)on2)CC1" ?
result: 6.30 to 6.70

query: And the next one, "CCN1CCN(Cc2ccc(NC(=O)Nc3ccc(-c4cn(C5CC5)c5ncnc(N)c45)n4ccnc34)cc2C(F)(F)F)CC1" ?
result: > 6.70

---

Biological target: full-length recombinant human NEK7 (Homo sapiens (Human))
Experiment: NEK7 Enzymatic Assay
Conditions: casein substrate, [33P]-ATP, 2 hours at room temperature
IC50 for assorted molecules

Answered cases to consult:
MOLECULE	IC50
Nc1ncnc2c1c(-c1ccc(NC(=O)Nc3cc(C4(C(F)(F)F)CC4)on3)c3occc13)cn2C1CC1	500 to 2000 nM
CC1(c2cc(NC(=O)Nc3ccc(-c4cn(C5CC5)c5ncnc(N)c45)n4ccnc34)on2)CCC1	200 to 500 nM
CN1CCN(Cc2ccc(NC(=O)Nc3ccc(-c4cn(C5CCC5)c5ncnc(N)c45)n4ccnc34)cc2C(F)(F)F)CC1	< 200 nM
CC1(c2cc(NC(=O)Nc3ccc(-c4cn(C5CC5)c5ncnc(N)c45)n4ccnc34)on2)CC1	< 200 nM
CC(C)n1cc(-c2ccc(NC(=O)Nc3ccc(OC4CCN(C)CC4)c(C(F)(F)F)c3)c3nccn23)c2c(N)ncnc21	< 200 nM
CCN1CCC(Oc2ccc(NC(=O)Nc3ccc(-c4cn(C5CC5)c5ncnc(N)c45)c4c3OC(C)C4)cc2C(F)(F)F)CC1 (centres unmarked)	> 2000 nM
CN1CCN(Cc2ccc(NC(=O)Nc3ccc(-c4cn(C5CC5)c5ncnc(N)c45)n4cc(C(F)(F)F)nc34)cc2C(F)(F)F)CC1	> 2000 nM
CC(C)(C)c1cc(NC(=O)Nc2ccc(-c3cn(C4CC4)c4ncnc(N)c34)c3ccncc23)on1	< 200 nM
CC(C)(C)c1cc(NC(=O)Nc2ccc(-c3cn(C4CC4)c4ncnc(N)c34)n3ccnc23)n(-c2ccccc2)n1	< 200 nM
CN1CCN(Cc2ccc(NC(=O)Nc3ccc(-c4cn(C5CC5)c5ncnc(N)c45)c4c3OC(C)(C)C4)cc2C(F)(F)F)CC1	> 2000 nM

query: What is its IC50 for full-length recombinant human NEK7 (Homo sapiens (Human))? Entry: "CN1CCN(Cc2ccc(NC(=O)Nc3ccc(-c4cn(C5CC5)c5ncnc(N)c45)c4nonc34)cc2C(F)(F)F)CC1"
result: < 200 nM

query: And the next one, "CN1CCN(Cc2ccc(NC(=O)Nc3ccc(-c4cn(C5CC5)c5ncnc(N)c45)n4ccnc34)cc2C(F)(F)F)CC1" ?
result: < 200 nM

query: And the next one, "CN1CCC(Oc2ccc(NC(=O)Nc3ccc(-c4cn(C5CC5)c5ncnc(N)c45)c4c3OC(C)(C)C4)cc2C(F)(F)F)CC1" ?
result: > 2000 nM

query: And the next one, "CN1CCC(Oc2ccc(NC(=O)Nc3ccc(-c4cn(C5CC5)c5ncnc(N)c45)n4ccnc34)cc2C(F)(F)F)CC1" ?
result: < 200 nM

---

Molecular target: full-length recombinant human NEK7 (Homo sapiens (Human), UniProt Q8TDX7)
Test: NEK7 Enzymatic Assay
Details: casein substrate, [33P]-ATP, 2 hours at room temperature
OBSERVABLE: IC50

Answered cases to consult:
COMPOUND	SYSTEM_TESTED	RECORDED_RESULT
CN1CCN(Cc2ccc(NC(=O)Nc3ccc(-c4cn(CCO)c5ncnc(N)c45)n4ccnc34)cc2C(F)(F)F)CC1	full-length recombinant human NEK7 (Homo sapiens (Human), UniProt Q8TDX7)	< 200 nM
CC(C)c1cc(NC(=O)Nc2ccc(-c3cn(C4CC4)c4ncnc(N)c34)n3ccnc23)no1	full-length recombinant human NEK7 (Homo sapiens (Human), UniProt Q8TDX7)	200 to 500 nM
Nc1ncnc2c1c(-c1ccc(NC(=O)Nc3cc(C4(C(F)(F)F)CC4)no3)c3cnccc13)cn2C1CC1	full-length recombinant human NEK7 (Homo sapiens (Human), UniProt Q8TDX7)	500 to 2000 nM

query: Reported IC50 for "CCN1CCC(Oc2ccc(NC(=O)Nc3ccc(-c4cn(C(C)C)c5ncnc(N)c45)n4ccnc34)cc2C(F)(F)F)CC1" : what is it?
result: < 200 nM

query: And the next one, "CCc1cc(NC(=O)Nc2ccc(-c3cn(C4CC4)c4ncnc(N)c34)n3ccnc23)on1" ?
result: 200 to 500 nM

query: And the next one, "Nc1ncnc2c1c(-c1ccc(NC(=O)Nc3cc(C4(C(F)(F)F)CC4)on3)c3nccn13)cn2-c1cccnc1" ?
result: < 200 nM

query: And the next one, "Nc1ncnc2c1c(-c1ccc(NC(=O)Nc3cc(C4(C(F)(F)F)CC4)on3)c3nccn13)cn2C1CCNCC1" ?
result: < 200 nM

query: And the next one, "Nc1ncnc2c1c(-c1ccc(NC(=O)Nc3cc(C4(C(F)(F)F)CC4)on3)c3nccn13)cn2C1CCC1" ?
result: < 200 nM

query: And the next one, "CC(C)(C)c1cc(NC(=O)Nc2ccc(-c3cn(C4CC4)c4ncnc(N)c34)n3ccnc23)no1" ?
result: < 200 nM

query: And the next one, "Nc1ncnc2c1c(-c1ccc(NC(=O)Nc3cc(C4(C(F)(F)F)CC4)on3)c3cnccc13)cn2C1CC1" ?
result: < 200 nM

query: And the next one, "CC(C)(O)Cn1cc(-c2ccc(NC(=O)Nc3cc(C4(C(F)(F)F)CC4)on3)c3nccn23)c2c(N)ncnc21" ?
result: < 200 nM

query: And the next one, "Nc1ncnc2c1c(-c1ccc(NC(=O)Nc3cc(C4(C(F)(F)F)CC4)on3)c3c1CCO3)cn2C1CC1" ?
result: 200 to 500 nM

Entry source: patent US20240158394A1
